system_tested: FGFR3 (UniProt P22607)
Sequence (P22607 whole entry, looked up): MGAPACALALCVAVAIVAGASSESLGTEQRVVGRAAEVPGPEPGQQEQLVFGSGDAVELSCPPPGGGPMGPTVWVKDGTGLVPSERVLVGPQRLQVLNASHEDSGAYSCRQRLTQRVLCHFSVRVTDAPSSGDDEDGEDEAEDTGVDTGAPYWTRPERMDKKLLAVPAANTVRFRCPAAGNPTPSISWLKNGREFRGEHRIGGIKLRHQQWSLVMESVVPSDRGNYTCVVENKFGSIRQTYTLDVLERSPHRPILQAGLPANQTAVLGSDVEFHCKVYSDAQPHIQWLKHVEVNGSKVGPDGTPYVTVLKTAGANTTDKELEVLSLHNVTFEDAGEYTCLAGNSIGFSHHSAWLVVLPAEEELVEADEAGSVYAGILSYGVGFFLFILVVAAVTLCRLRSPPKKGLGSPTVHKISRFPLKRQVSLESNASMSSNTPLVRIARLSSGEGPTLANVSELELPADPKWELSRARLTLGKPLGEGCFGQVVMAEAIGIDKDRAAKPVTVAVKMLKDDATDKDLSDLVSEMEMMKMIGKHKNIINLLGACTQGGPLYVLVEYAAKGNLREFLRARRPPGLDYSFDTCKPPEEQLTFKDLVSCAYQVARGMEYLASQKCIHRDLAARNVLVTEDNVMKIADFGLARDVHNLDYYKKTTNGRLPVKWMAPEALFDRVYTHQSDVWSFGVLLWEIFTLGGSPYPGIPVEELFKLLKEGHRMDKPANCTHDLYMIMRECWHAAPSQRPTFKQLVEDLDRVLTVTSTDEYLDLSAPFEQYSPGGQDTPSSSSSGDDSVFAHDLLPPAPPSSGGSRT
experiment_summary: phosphorylation enrichment, bacterial display (enrichment ratio); higher = better substrate or ligand; peptides without Tyr show the background;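 also: 11-residue human phosphosite peptides and single-mutation variants displayed on the E. coli surface, counted by deep sequencing, each peptide's frequency after selection divided by its frequency in the unselected input library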;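 also: frequency after pTyr selection over input frequency; kinase dosed for 20-30% of maximal phosphorylation in three min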
phosphorylation enrichment of 0.5 or higher: y. Under 0.5: n.

>>> df
                         residues  class_name
0      EREYKYGAHNH [OAT_Y50_Y55H]           n
1   FSCLPYGRLAF [SLC52A2_Y305_YF]           y
2         MKVPVYETPAG [PGM5_Y358]           y
3  LFEDHYLLGTS [ASS1_Y87_R86H_YF]           y
4          ATRKAYGQALA [TKT_Y321]           n
5           ISGGGYRARPA [FGB_Y71]           n

---

phosphorylation enrichment overview
System: Fer (mouse)
experiment_summary: phosphorylation enrichment, bacterial display (enrichment ratio); higher = better substrate or ligand; peptides without Tyr show the background
metric: phosphorylation enrichment

In [3]: df
Out[3]:
                            residues  experimental_value
 0      FADIAYNYHHG [PAH_Y166_R169H]               0.443
 1      TRLAQYDSNSK [BMX_Y216_S212R]               0.445
 2     MIRSTYALGGL [CPS1_Y590_A589T]               0.489
 3   LLQKTYNYNVL [SLC4A1_Y553_P548L]               0.496
 4       PVDVAYRRGFF [PLEC_Y2967_YF]               0.584
 5   GQECKYPPTQD [METAP2_Y137_E136K]               0.511
 6       CLAKMYYSAVE [CP_Y539_D544E]                1.35
 7  KDKLPYLFDDP [GPX2_Y125_P126L_YF]               0.423
 8  HCFNSYTFPRL [PAK7_Y316_S312C_YF]               0.804
 9    TGEDWYVLVRV [SF3B3_Y904_G908R]               0.524
10                       LANNEYYFRVC                0.62
11     RLSARYFQGDL [PDK3_Y337_Y334S]               0.312
12      KQLGEYKFQNA [ALB_Y425_E420K]               0.306
13           SGSFRYGSSCE [SELE_Y390]               0.353

---

Test system: Fer (mouse)
experiment_summary: phosphorylation enrichment, bacterial display (enrichment ratio); higher = better substrate or ligand; peptides without Tyr show the background
metric: phosphorylation enrichment

>>> print(df.to_string())
                            residues                      metric  experimental_value
 0        RPSGRYPVARR [SHANK3_Y1569]  phosphorylation enrichment               0.695
 1  IYKAAYFGVYD [SLC25A4_Y191_R188K]  phosphorylation enrichment               0.893
 2    GGYTWYCDGKK [PROS1_Y266_C265W]  phosphorylation enrichment               0.524
 3        RSSGPYGGGGQ [HNRNPA1_Y341]  phosphorylation enrichment               0.518
 4        SKDQIYPMKLK [RANBP17_Y823]  phosphorylation enrichment               0.336
 5   AALLNYKAGRD [GRIN2A_Y737_V734L]  phosphorylation enrichment               0.384
 6          VSNFNYFYHRE [KCNA1_Y413]  phosphorylation enrichment               0.404
 7            RLRKYYLGKYL [KLB_Y906]  phosphorylation enrichment               0.538
 8  MGHVNYGAFIN [GLB1_Y485_R482H_YF]  phosphorylation enrichment               0.406
 9          TTSQPYRCLCS [USH2A_Y534]  phosphorylation enrichment               0.509
10    EQRRAYLEGTC [HLA-C_Y183_L180R]  phosphorylation enrichment               0.498
11    KAEQLYIGVTV [EFHC2_Y509_E507Q]  phosphorylation enrichment                6.51
12      ALWYIYLHTRS [ENG_Y614_S615L]  phosphorylation enrichment               0.514
13   KRAAIYNPVIF [RHO_Y301_S297R_YF]  phosphorylation enrichment                10.4

Attribution: the supplement of paper PMC10065799
